Target: T1, human EphA10 (Homo sapiens, UniProt Q5JZY3)
T1 construct: a protein of the extracellular region of each human Eph receptor fused with the SEAP protein and the His tag; made in house; host or cells: Expi293F cells (culture supernatant)
T1 sequence (Q5JZY3 34-565 limits assumed): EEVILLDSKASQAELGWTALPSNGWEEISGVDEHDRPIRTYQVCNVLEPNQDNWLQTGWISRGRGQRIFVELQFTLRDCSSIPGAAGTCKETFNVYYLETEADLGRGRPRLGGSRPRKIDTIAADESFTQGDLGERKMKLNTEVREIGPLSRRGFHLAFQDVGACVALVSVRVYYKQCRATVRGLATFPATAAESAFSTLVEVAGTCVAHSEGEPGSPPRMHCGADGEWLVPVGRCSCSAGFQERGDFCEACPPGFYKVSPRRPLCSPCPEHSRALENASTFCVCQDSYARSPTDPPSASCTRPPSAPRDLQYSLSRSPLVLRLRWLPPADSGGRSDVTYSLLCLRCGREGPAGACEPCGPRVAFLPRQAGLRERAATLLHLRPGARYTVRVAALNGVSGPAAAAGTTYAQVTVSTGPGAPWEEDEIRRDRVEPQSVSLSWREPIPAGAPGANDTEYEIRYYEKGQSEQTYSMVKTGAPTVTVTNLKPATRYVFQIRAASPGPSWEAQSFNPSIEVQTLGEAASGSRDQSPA
Test: Selectivity ELISA of humanized antibodies for human Eph receptor
Format: binding
Settings: coated protein 1 nM
parameter measured: hEphA10-SEAP-: absorbance at 450 nm, percentage with respect to hEphA4-SEAP-His as 100% (%)
Give the quantity in %, number only.

(Q) // query hEphA10-SEAP-: absorbance at 450 nm, percentage with respect to hEphA4-SEAP-His as 100% value for entry 157 (antibody, V domains shown, synthetic humanized antibody heavy chain variable region sequence; synthetic humanized antibody light chain variable region sequence) VH: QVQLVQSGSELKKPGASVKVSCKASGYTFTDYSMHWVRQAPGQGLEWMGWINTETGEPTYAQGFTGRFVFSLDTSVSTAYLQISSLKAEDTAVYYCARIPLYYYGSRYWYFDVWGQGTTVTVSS VL: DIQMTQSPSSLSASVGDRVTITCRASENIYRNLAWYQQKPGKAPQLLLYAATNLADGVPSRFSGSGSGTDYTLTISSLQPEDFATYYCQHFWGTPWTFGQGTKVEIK
(A) 6.1

(Q) Same read-out for 78 (antibody, V domains shown, synthetic humanized antibody heavy chain variable region sequence; synthetic humanized antibody light chain variable region sequence) VH: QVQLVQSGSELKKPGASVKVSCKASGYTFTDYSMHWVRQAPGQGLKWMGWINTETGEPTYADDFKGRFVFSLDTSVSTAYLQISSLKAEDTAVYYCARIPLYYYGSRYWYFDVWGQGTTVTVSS VL: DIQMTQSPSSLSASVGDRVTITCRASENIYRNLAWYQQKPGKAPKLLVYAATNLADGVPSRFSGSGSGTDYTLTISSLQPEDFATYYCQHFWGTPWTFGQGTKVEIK ?
(A) 5.2
